Data origin: patent US20260374857

# system tested: T1, GnRH Bio-peptide 1 (not fully specified)
# T1 chain: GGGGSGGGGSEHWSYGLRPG
# measurement description: ELISA
Provide the recorded pEC50 for the entries that follow.
Give bare numbers, as −log10 of the molar value.

binder	numeric readout
Clone 9 Ala scanning 6 (antibody, V domains shown) VH: EVQLVESGGGLVQSGGSLGLSCAASGRTFSGYAMGWFRQAPGKEREFVAAIRWSGGSTSYADSVKGRFTISRDNAKNTVYLQMNSLKPEDTAVYYCAADRGPSASYYYPDYWGQGTQVTVSS	6.28
Clone 9 Ala scanning 5 (antibody, V domains shown) VH: EVQLVESGGGLVQSGGSLGLSCAASGRTFSGYAMGWFRQAPGKEREFVAAIRWSGGSTSYADSVKGRFTISRDNAKNTVYLQMNSLKPEDTAVYYCAADRGPAGSYYYPDYWGQGTQVTVSS	7.31
Clone 9 Ala scanning 11 (antibody, V domains shown) VH: EVQLVESGGGLVQSGGSLGLSCAASGRTFSGYAMGWFRQAPGKEREFVAAIRWSGGSTSYADSVKGRFTISRDNAKNTVYLQMNSLKPEDTAVYYCAADRGPSGSYYYADYWGQGTQVTVSS	6.43

Then there is this binder:
Query: Give me measured pEC50, please, for this binder: Clone 9 Ala scanning 7 (antibody, V domains shown) VH: EVQLVESGGGLVQSGGSLGLSCAASGRTFSGYAMGWFRQAPGKEREFVAAIRWSGGSTSYADSVKGRFTISRDNAKNTVYLQMNSLKPEDTAVYYCAADRGPSGAYYYPDYWGQGTQVTVSS
Result: 7.81
